# Test system: IL-1β release upon NLRP3 activation in phorbol 12-myristate 13-acetate (PMA)-differentiated THP-1 cells
# PROTOCOL_DETAILS: THP-1 IC50 Determination Assay
# Type: cell-based
# MEASUREMENT_CONDITIONS: Homo sapiens, inhibition of IL-1β release, LPS, nigericin, ELISA
Counter-ions that a name gives are not always drawn.
METRIC_NAME: IC50

Supply recorded IC50 for Cc1cc(Cl)cc(O)c1-c1cc2ncn(C[C@@H]3CCCN(C)C3)c2nn1 [Compound 79, hydrochloride] here.
30 to 100 nM

---

# System: IL-1β release upon NLRP3 activation in phorbol 12-myristate 13-acetate (PMA)-differentiated THP-1 cells
# PROTOCOL_DETAILS: THP-1 IC50 Determination Assay
# Format: cell-based
# MEASUREMENT_CONDITIONS: Homo sapiens, inhibition of IL-1β release, LPS, nigericin, ELISA
pIC50: −log10 of the molar value. Where a name gives a salt, the structure may show the parent alone.
METRIC_NAME: pIC50

The examples below pair each entry with its known result.
[[record]]
compound = "Cc1cc(C#N)cc(O)c1-c1cc2ncn(CC3CCN(C)CC3)c2nn1 [Compound 73]"
metric_name = "pIC50"
meas_value = "6.00 to 6.52"

[[record]]
compound = "Cc1cc(Cl)cc(O)c1-c1cc2ccn(CC3CCN(C)C4(CC4)C3)c2nn1 (stereo not shown) [Compound 49, hydrochloride]"
metric_name = "pIC50"
meas_value = "6.00 to 6.52"

[[record]]
compound = "Cc1cc(Cl)cc(O)c1-c1cc2ccn(CCN3CCCC3=O)c2nn1 [Compound 40]"
metric_name = "pIC50"
meas_value = "5.52 to 6.00"


Item Cc1cc(Cl)cc(O)c1-c1cc2ccn(CC3(C#N)CCN(C)CC3)c2nn1 [Compound 55] : provide pIC50
7.00 to 7.52

---

# System: IL-1β release upon NLRP3 activation in phorbol 12-myristate 13-acetate (PMA)-differentiated THP-1 cells
# PROTOCOL_DETAILS: THP-1 IC50 Determination Assay
# Assay type: cell-based
# MEASUREMENT_CONDITIONS: Homo sapiens, inhibition of IL-1β release, LPS, nigericin, ELISA
Where a name gives a salt, the structure may show the parent alone.
Let's look at some compounds and their measured IC50.

As a guide, the following entries are already answered.
[[record]]
compound = "Cc1cc(Cl)cc(O)c1-c1cc2ccn(CCN3CCCCC3)c2nn1 [Compound 38, hydrochloride]"
meas_value = "300 to 1000 nM"

[[record]]
compound = "Cc1cc(Cl)cc(O)c1-c1cc2ccn(CC3CCN(C=O)CC3)c2nn1"
meas_value = "30 to 100 nM"


Specify reported IC50 for the compound shown: Cc1cc(C(F)(F)F)cc(O)c1-c1cc2cc[nH]c2nn1
300 to 1000 nM

Dear colleague, please send me the reported IC50 for Cc1cc(C(F)(F)F)cc(O)c1-c1cc2ccn(CC3CCOCC3)c2nn1 when you can.
300 to 1000 nM

Fill in IC50 for record CNC(=O)CCn1ccc2cc(-c3c(C)cc(Cl)cc3O)nnc21
300 to 1000 nM

Note down IC50 recorded for Cc1cc(Cl)cc(O)c1-c1cc2ccn(CC3CCCN(C)C3)c2nn1 (stereo not shown)
100 to 300 nM

Given Cc1cc(Cl)cc(O)c1-c1cc2ccn(CCN3CCOCC3)c2nn1 [Compound 12, hydrochloride] , respond with its IC50.
100 to 300 nM

Tell us which IC50 value is on record for Cc1cc(Cl)cc(O)c1-c1cc2ccn(CC3CCOCC3)c2nn1
300 to 1000 nM

Query IC50 for COCCN1CCC(Cn2ccc3cc(-c4c(C)cc(Cl)cc4O)nnc32)CC1
100 to 300 nM

---

# Test system: IL-1β release upon NLRP3 activation in phorbol 12-myristate 13-acetate (PMA)-differentiated THP-1 cells
# PROTOCOL_DETAILS: THP-1 IC50 Determination Assay
# Assay type: cell-based
# MEASUREMENT_CONDITIONS: Homo sapiens, inhibition of IL-1β release, LPS, nigericin, ELISA
Structures can show the parent of a compound that is named as a salt.
METRIC_NAME: IC50

[[record]]
compound = "Cc1cc(Cl)cc(O)c1-c1cc2ccn(CC3CCCCO3)c2nn1 (centres unmarked) [Compound 25]"
metric_name = "IC50"
meas_value = "100 to 300 nM"

[[record]]
compound = "Cc1cc(Cl)cc(O)c1-c1cc2ccn(CC(=O)N(C)[C@H]3CCN(C)C3)c2nn1 [Compound 61, hydrochloride]"
metric_name = "IC50"
meas_value = "100 to 300 nM"

[[record]]
compound = "Cc1cc(Cl)cc(O)c1-c1cc2ccn(CCN(C)C)c2nn1 [Compound 22, hydrochloride]"
metric_name = "IC50"
meas_value = "300 to 1000 nM"

[[record]]
compound = "Cc1cc(Cl)cc(O)c1-c1cc2ncn(CC3CCN(C)CC3)c2nn1 [Compound 71]"
metric_name = "IC50"
meas_value = "30 to 100 nM"

[[record]]
compound = "Cc1cc(Cl)cc(O)c1-c1cc2ccn(CC3CN(C)C3)c2nn1 [Compound 28, hydrochloride]"
metric_name = "IC50"
meas_value = "300 to 1000 nM"


Specify measured IC50 for Cc1cc(Cl)cc(O)c1-c1cc2ccn(CCN3CCCC(F)C3)c2nn1 (centres unmarked) [Compound 33, hydrochloride] .
300 to 1000 nM

For the compound Cc1cc(Cl)cc(O)c1-c1cc2ccn(CC(=O)N(C)C3COC3)c2nn1 [Compound 58] , report IC50.
100 to 300 nM

Return reported IC50. Input compound: Cc1cc(Cl)cc(O)c1-c1cc2ccn(C[C@H]3CCCCN3C)c2nn1 [Compound 47, hydrochloride]
300 to 1000 nM

---

# System: IL-1β release upon NLRP3 activation in phorbol 12-myristate 13-acetate (PMA)-differentiated THP-1 cells
# PROTOCOL_DETAILS: THP-1 IC50 Determination Assay
# Format: cell-based
# MEASUREMENT_CONDITIONS: Homo sapiens, inhibition of IL-1β release, LPS, nigericin, ELISA
# Procedure: The compounds of the present disclosure were tested for their inhibitory activity against IL-1β release upon NLRP3 activation in phorbol 12-myristate 13-acetate (PMA)-differentiated THP-1 cells. THP-1 cells stored in liquid nitrogen were thawed in a 37° C. water bath. […] 35 μL/well of supernatant was removed and IL-1β levels determined by ELISA assay (Mabtech 3416-1H-20) according to the manufacturer's instructions.
pIC50: −log10 of the molar value. Where a name gives a salt, the structure may show the parent alone.
METRIC_NAME: pIC50

Some solved cases for reference:
[[record]]
compound = "Cc1cc(Cl)cc(O)c1-c1cc2ccn(CCN3CCC(=O)C3)c2nn1"
meas_value = "6.00 to 6.52"

[[record]]
compound = "Cc1cc(Cl)cc(O)c1-c1cc2ncn(CC(=O)N(C)C)c2nn1"
meas_value = "6.52 to 7.00"

[[record]]
compound = "Cc1cc(C)c(-c2cc3ncn(CC4CCN(C)CC4)c3nn2)c(O)c1"
meas_value = "7.00 to 7.52"

[[record]]
compound = "CN1CCC(Cn2ccc3cc(-c4ccc(C#N)cc4O)nnc32)CC1"
meas_value = "5.00 to 5.52"

[[record]]
compound = "Cc1cc(Cl)cc(O)c1-c1cc2ccn([C@@H]3CCN(C)C3=O)c2nn1"
meas_value = "6.00 to 6.52"


State, in one line, measured pIC50 of Cc1cc(Cl)cc(O)c1-c1cc2ccn(C(=O)N3CCN(C)CC3)c2nn1 [Compound 50, hydrochloride]
6.00 to 6.52

Write down pIC50 measured for item Cc1cc(Cl)cc(O)c1-c1cc2ccn(CC3CC4(C3)CN(C)C4)c2nn1 [Compound 52, hydrochloride]
6.52 to 7.00

---

# Test system: IL-1β release upon NLRP3 activation in phorbol 12-myristate 13-acetate (PMA)-differentiated THP-1 cells
# PROTOCOL_DETAILS: THP-1 IC50 Determination Assay
# Type: cell-based
# MEASUREMENT_CONDITIONS: Homo sapiens, inhibition of IL-1β release, LPS, nigericin, ELISA
Counter-ions that a name gives are not always drawn.
METRIC_NAME: IC50

Reference set, count: 5
[[record]]
compound = "Cc1cc(Cl)cc(O)c1-c1cc2ccn(CC3CCN(S(C)(=O)=O)CC3)c2nn1"
meas_value = "100 to 300 nM"

[[record]]
compound = "COCCCn1ccc2cc(-c3c(C)cc(Cl)cc3O)nnc21"
meas_value = "300 to 1000 nM"

[[record]]
compound = "Cc1cc(Cl)cc(O)c1-c1cc2ccn(CCN3CCN(C)CC3)c2nn1 [Compound 13, dihydrochloride]"
meas_value = "300 to 1000 nM"

[[record]]
compound = "Cc1cc(C(F)(F)F)cc(O)c1-c1cc2ccn(CC3CCOC3)c2nn1 (stereo not shown)"
meas_value = "100 to 300 nM"

[[record]]
compound = "CC(=O)NCCn1ccc2cc(-c3c(C)cc(Cl)cc3O)nnc21"
meas_value = "300 to 1000 nM"


Shifting focus to the compound that follows.
Give IC50 for the following compound: Cc1cc(Cl)cc(O)c1-c1cc2ccn(CC(=O)N(C)[C@@H]3CCOC3)c2nn1
100 to 300 nM
